Experiment: Lability of yttrium complexes on addition of excess metal
Format: physicochemical
Settings: Metal/Ligand Molar Ratio 500; Y; one-half hour after metal addition
readout kind: % Complex (%)

compound	observed value
Nc1ccc(CC(CN(CCN(CC(=O)O)CC(=O)O)CC(=O)O)N(CC(=O)O)CC(=O)O)cc1 (stereo not shown) [ABDTPA]	70
O=C(O)CN(CCN(CC(=O)O)CC(=O)O)CC(=O)O [EDTA, ethylenediaminetetraacetic acid]	16
Nc1cc(CN(CCN(CC(=O)O)CC(=O)O)CC(=O)O)c(O)c(CN(CCN(CC(=O)O)CC(=O)O)CC(=O)O)c1 [Example 12]	79
CC(=O)Nc1ccc(OCC(=O)O)c(C(C(=O)O)N(CCN(CC(=O)O)CC(=O)O)CC(=O)O)c1 (stereo not shown) [Example 2]	75

====

Assay: Percent complex determination, yttrium complexes (Sephadex C-25 cation exchange)
Type: physicochemical
Conditions: Y; ligand/metal 10:1
readout kind: % Complex (%)

compound	% Complex / %
Nc1ccc(O)c(C(C(=O)O)N(CCN(CC(=O)O)CC(=O)O)CC(=O)O)c1 (stereo not drawn) [Example 5]	99
CC(=O)Nc1cc(CN(CCN(CC(=O)O)CC(=O)O)CC(=O)O)c(O)c(CN(CC(=O)O)CC(=O)O)c1 [Example 15]	99
CC(=O)Nc1ccc(O)c(C(NCCN(CC(=O)O)CC(=O)O)C(=O)O)c1 (stereo not drawn) [Example 1]	98
CC(=O)Nc1cc(CN(CCN(CC(=O)O)CC(=O)O)CC(=O)O)c(O)c(CN(CCN(CC(=O)O)CC(=O)O)CC(=O)O)c1 [Example 11]	99
CC(=O)Nc1cc(C(C(=O)O)N(CC(=O)O)CC(=O)O)c(O)c(C(C(=O)O)N(CC(=O)O)CC(=O)O)c1 (stereo not drawn) [Example 10]	98
Nc1cc(CN(CCN(CC(=O)O)CC(=O)O)CC(=O)O)c(O)c(CN(CCN(CC(=O)O)CC(=O)O)CC(=O)O)c1 [Example 12]	99

====

Assay: Lability of yttrium complexes on addition of excess metal
Type: physicochemical
Details: Metal/Ligand Molar Ratio 1; Y
readout kind: % Complex (%)

compound	observed value
O=C(O)CN(CCN(CC(=O)O)CC(=O)O)CC(=O)O	98
CC(=O)Nc1ccc(OCC(=O)O)c(C(C(=O)O)N(CCN(CC(=O)O)CC(=O)O)CC(=O)O)c1 (stereo not shown)	99
Nc1ccc(CC(CN(CCN(CC(=O)O)CC(=O)O)CC(=O)O)N(CC(=O)O)CC(=O)O)cc1 (stereo not shown)	97
Nc1cc(CN(CCN(CC(=O)O)CC(=O)O)CC(=O)O)c(O)c(CN(CCN(CC(=O)O)CC(=O)O)CC(=O)O)c1	95

====

Assay: Lability of yttrium complexes on addition of excess metal
Assay type: physicochemical
Settings: Metal/Ligand Molar Ratio 100; Y; one-half hour after metal addition
readout kind: % Complex (%)

molecule	% Complex [%]
O=C(O)CN(CCN(CC(=O)O)CC(=O)O)CC(=O)O [EDTA, ethylenediaminetetraacetic acid]	78
Nc1cc(CN(CCN(CC(=O)O)CC(=O)O)CC(=O)O)c(O)c(CN(CCN(CC(=O)O)CC(=O)O)CC(=O)O)c1 [Example 12]	90
Nc1ccc(CC(CN(CCN(CC(=O)O)CC(=O)O)CC(=O)O)N(CC(=O)O)CC(=O)O)cc1 (stereo not shown) [ABDTPA]	92
CC(=O)Nc1ccc(OCC(=O)O)c(C(C(=O)O)N(CCN(CC(=O)O)CC(=O)O)CC(=O)O)c1 (stereo not shown) [Example 2]	84
